In this section, each of the compounds is paired with its reported Ki.
test-system: KOR (Cavia porcellus, UniProt P41144)
Construct: from tissue
Sequence (P41144 whole entry): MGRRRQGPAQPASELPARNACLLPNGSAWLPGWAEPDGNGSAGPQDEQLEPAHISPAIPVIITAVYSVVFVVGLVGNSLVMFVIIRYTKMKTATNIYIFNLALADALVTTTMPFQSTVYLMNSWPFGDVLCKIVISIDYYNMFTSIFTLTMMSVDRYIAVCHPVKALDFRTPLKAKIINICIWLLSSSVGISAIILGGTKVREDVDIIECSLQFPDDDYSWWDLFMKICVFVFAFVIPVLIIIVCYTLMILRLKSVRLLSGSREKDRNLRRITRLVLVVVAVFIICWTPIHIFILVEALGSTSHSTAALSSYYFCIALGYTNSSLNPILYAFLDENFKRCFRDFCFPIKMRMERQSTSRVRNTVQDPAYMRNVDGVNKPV
assay-overview: Opioid receptor binding, KOR, guinea pig brain membranes
condition-set: Binding Ki (nM) KOR, in vitro binding assay, guinea pig brain membranes
Just the number in nM, nothing appended.

# compound, recorded-metric, result-number
data = [
    ("CO[C@@]12CC[C@@H](N[C@@H](CC(N)=O)C(=O)OC(C)(C)C)[C@@H]3Oc4c(O)ccc5c4[C@@]31CCN(C)[C@@H]2C5", "Ki", 75.8),
    ("CO[C@@]12CC[C@@H](NCCC(=O)OC(C)(C)C)[C@@H]3Oc4c(O)ccc5c4[C@@]31CCN(C)[C@@H]2C5", "Ki", 7.54),
]

Below: the item to evaluate.
Task: Bench note: what Ki did COC12CCC(NC(C)C(=O)O)C3Oc4c(O)ccc5c4C31CCN(C)C2C5 (single isomer, unassigned) [Compound 2] show?
Result: 63.7
